Hello, the source for this data is the nanobody polyreactivity screen of Harvey et al. (2022), in case you need it.

assay: yeast display, Sf9 membrane polyspecificity reagent, FACS + sequencing; frameworks hold sequencing errors
Metric Name: polyreactivity (PSR sort gate)

The value of polyreactivity (PSR sort gate) measured for the sequence QVQLVESGGGLVQAGGSLRLSCAASGRTIRSYAMGWYSPAPGKERELVAAITGSGGRTYYADSVKGRFTISRDNATNTVYLQMNSLKPEDTAVYYCAARLRGSYDYWGQGTQVTVSS turned out to be high polyreactivity

The value of polyreactivity (PSR sort gate) measured for the sequence PVQLVESGGGLVQAGGSLRLSCAASGFTFSYYAMGWYRQAPGQEWELVAGIDDSCGSTYYADSVKGRFTISRDNAKNTVELQMNSLKPEDTAFYYCNAVYARKYYYSHGYDYWGQGTQVTVSS turned out to be high polyreactivity

The value of polyreactivity (PSR sort gate) measured for the sequence QVQLVESGGGLVQAGGSLRLSCAASGRIFYSNTMGWYRQAPGKERELVARIDTGGGSTYADSVKGRFTISRDNAKNTVYLQMNSLKPEDTAVYYCNKKGRWRSWGSTSLVSMDYWGQGTQVTVSS turned out to be low polyreactivity

The value of polyreactivity (PSR sort gate) measured for the sequence QVQLVESGGGLVKAGGSIRISCAPSGRIFNQYGIGRNRQAPGKEMELVDAIRSGDSTNYADSVKGRFTISRDNAKNTFYLQMNRLKPEDTAVYFCARDRPGDYAGSDYWGQGTQVTVSS turned out to be low polyreactivity

The value of polyreactivity (PSR sort gate) measured for the sequence QVQLVESGGGLVQAGGSLRLSCAASGSTFLVYAMGWYRQAPGKERELVARINWRGSSTYADSVKGRFTISRDNAKNTVYLQMNSLKPEDTAVYYCNADSYRYYHPTYIYDYWGQGTQVTVSS turned out to be low polyreactivity

The value of polyreactivity (PSR sort gate) measured for the sequence QVQLVESGGGLVQAGGSLRLSCAASGSIFQGYSMGWYRQAPGKERELVAAITASGGSTYYADSVKGRFTISRDNAKNTVYLQMNSLKPEDTAVYYCATDSYWRQDLYRYEYWGQGTQVTVSS turned out to be high polyreactivity

The value of polyreactivity (PSR sort gate) measured for the sequence QVQLVESGGGLVQAGGSLRLSCAASGRISNRYAMGWYRQAPGKERELVAAIRRSTTSTYADSVKGRFTISRDNEKNTFYLQMNSLKPEYTAVYYCAARGGRRGGYYSWGQGTQVTVSA turned out to be high polyreactivity

The value of polyreactivity (PSR sort gate) measured for the sequence QVQLVESGGGLVQAGGSLRLSCAASGRIFRYYDMGWYRQAPGKEREFVAAITRSGAITYYADSVKGRFTISRDNAKNTVYLQMNSLKPEDTAVYYCAARYWSKFGYWGQGTQVTVSS turned out to be low polyreactivity

New cases:
The value of polyreactivity (PSR sort gate) measured for the sequence QVQLVESVGGLVQAGGSLRLSCAGSGSIFFRNSMLWYRQAPGKERELVAAIRSSVSSTYYADSVKGRFTISRDNAKNTVYLQLNSLKPEDTAVYYCAAAARSYVGYYYWGQGTQVTVSS turned out to be low polyreactivity

The value of polyreactivity (PSR sort gate) measured for the sequence QVQLVESGGGLVQAGGSLRLSCAASGSTFHFYAMGWYRQAHGKERELVASITSRGGNTHYADSVKGRFTISRDNAKNTVYFQMNSLKPEDTAVYYCAARKGTSWKAHFRFDYWGQGTQVTVSS turned out to be low polyreactivity

The value of polyreactivity (PSR sort gate) measured for the sequence QVQLVESGGGLVQAGGSLRLSCAASGSIFTPYAMGWYRQEPGKERELVAAISRSGGSTYYADSVKGRFTISRDNAKNTVYLQMNSLKPEDTAVYYCAVVVYDIYGYESDYWGQGTQVTVSS turned out to be low polyreactivity
